Ref: paper PMC5001606

- study.target: T1, HiNmlR C71A/C95A (Haemophilus influenzae Rd KW20, UniProt P44558 1-135, C71A;C95A)
- T1 sequence: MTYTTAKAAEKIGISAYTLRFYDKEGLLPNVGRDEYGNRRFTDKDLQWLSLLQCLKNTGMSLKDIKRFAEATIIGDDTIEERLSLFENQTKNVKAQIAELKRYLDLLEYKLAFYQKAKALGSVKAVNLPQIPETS
- assay.explanation: MST
pKd: −log10 of the molar value.

binder	pKd
PadhC-estD/nmlR IR wt 24-bp (dsDNA) DNA 1: CACTTTAGAGTTCACTCTAAAGCA DNA 2: TGCTTTAGAGTGAACTCTAAAGTG	7.48
